MEASURED TARGET: Fyn SH3 domain, His6-tagged SUMO fusion (human, UniProt P06241 82-143)
Sequence (P06241 82-143): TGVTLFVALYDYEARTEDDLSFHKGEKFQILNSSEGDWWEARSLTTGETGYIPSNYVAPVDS
METHOD: ELISA
READOUT KIND: IC50

Ask: Please give the measured IC50 for this binder: VSLARRPLPPLPGGK [proline-rich peptide VSLARRPLPPLPGGK]
Reply: ~440 nM
